systemName: UniProt O75762
Sequence (O75762 whole entry): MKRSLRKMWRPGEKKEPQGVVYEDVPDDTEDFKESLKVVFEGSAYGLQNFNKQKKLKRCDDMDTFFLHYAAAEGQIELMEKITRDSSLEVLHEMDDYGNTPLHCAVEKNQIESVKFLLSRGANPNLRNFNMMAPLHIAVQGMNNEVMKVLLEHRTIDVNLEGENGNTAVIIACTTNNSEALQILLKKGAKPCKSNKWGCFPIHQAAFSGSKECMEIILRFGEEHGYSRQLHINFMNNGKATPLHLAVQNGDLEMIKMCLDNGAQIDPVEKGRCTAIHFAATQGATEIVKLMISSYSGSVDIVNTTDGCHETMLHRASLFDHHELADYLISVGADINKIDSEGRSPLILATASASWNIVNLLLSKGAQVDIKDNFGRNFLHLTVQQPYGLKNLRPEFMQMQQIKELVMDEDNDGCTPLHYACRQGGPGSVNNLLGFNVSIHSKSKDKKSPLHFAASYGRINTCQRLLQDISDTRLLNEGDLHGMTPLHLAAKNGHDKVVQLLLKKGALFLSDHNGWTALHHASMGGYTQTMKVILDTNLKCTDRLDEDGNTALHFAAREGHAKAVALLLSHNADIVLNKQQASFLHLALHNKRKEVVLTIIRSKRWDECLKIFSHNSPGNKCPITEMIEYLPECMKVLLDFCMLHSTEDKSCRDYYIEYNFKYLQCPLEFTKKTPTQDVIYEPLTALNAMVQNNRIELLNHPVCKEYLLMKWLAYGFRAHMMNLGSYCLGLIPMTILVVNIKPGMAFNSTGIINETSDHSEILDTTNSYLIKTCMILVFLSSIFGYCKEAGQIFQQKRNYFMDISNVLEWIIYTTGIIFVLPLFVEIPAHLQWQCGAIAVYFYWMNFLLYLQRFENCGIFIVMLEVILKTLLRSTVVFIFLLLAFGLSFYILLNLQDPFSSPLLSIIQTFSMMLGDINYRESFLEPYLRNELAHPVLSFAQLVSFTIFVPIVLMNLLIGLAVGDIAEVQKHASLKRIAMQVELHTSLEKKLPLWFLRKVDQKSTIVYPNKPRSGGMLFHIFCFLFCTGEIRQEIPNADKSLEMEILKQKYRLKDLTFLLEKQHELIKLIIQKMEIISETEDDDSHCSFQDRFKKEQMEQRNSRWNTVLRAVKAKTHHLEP
test: FLIPR Ca2+ assay, reduction of hydrogen peroxide activation of TRPA1
Format: cell-based
Design: expressed in transfected cells
conditionNotes: compound 100 μM against 200 μM hydrogen peroxide; Sets 1-4; read-out: % Reduction of Hydrogen Peroxide TRPA1 Activation
Description: After centrifugation, a pellet of cells was formed in the bottom of the tube separating them from the supernatant solution. The pelleted cells were re-suspended in 10 ml assay buffer and 90 μl aliquots (˜50,000 cells) per well delivered to a 96-well assay plate containing 10 μl of test compounds ([…]) or buffer control and incubated at room temperature for 30 minutes.
measure: inhibition at 100 µM (%)
Quick note: give the figure in %, leave out the unit.

Requested field: inhibition at 100 µM. Item: C=CCOC(=O)CCC1CCCCC1 [allyl cyclohexanepropionate] 51.1

Requested field: inhibition at 100 µM. Item: `CC1=CCC(C(C)C)=CC1` 55.6

Requested field: inhibition at 100 µM. Item: `O=CCc1ccccc1` 75.7

Requested field: inhibition at 100 µM. Item: CCCCCCCCCC(C)O (stereo not shown) 56.7

Requested field: inhibition at 100 µM. Item: `CC(C)CCO` 56.7

Requested field: inhibition at 100 µM. Item: CC1CCC(=O)C1=O (stereo not shown) 53.9

Requested field: inhibition at 100 µM. Item: CCCCC(CC)CO (stereo not shown) 53.2

Requested field: inhibition at 100 µM. Item: CC(C)CC(=O)OCCc1ccccc1 [phenylethyl isovalerate] 53.3

Requested field: inhibition at 100 µM. Item: `CCCC=O` 55.4

Requested field: inhibition at 100 µM. Item: `C=C(C)OC(C)=O` 59.4

Requested field: inhibition at 100 µM. Item: CC1(O)CSC(C)(O)CS1 (stereo not shown) 77.2

Requested field: inhibition at 100 µM. Item: CC(C)COC(=O)C(C)C [isobutyl isobutyrate] 52

Requested field: inhibition at 100 µM. Item: `CCC(=O)c1nccs1` 54

Requested field: inhibition at 100 µM. Item: CCC(S)C(C)=O (stereo not shown) 82.2

Requested field: inhibition at 100 µM. Item: `c1ccc2ncccc2c1` 51.2

Requested field: inhibition at 100 µM. Item: `CCCCCC(=O)CCCCC` 52.3

Requested field: inhibition at 100 µM. Item: `CSCSCSC` 56.5

Requested field: inhibition at 100 µM. Item: `c1ccc2scnc2c1` 48

Requested field: inhibition at 100 µM. Item: `CCCCCCCCCCCO` 51.8

Requested field: inhibition at 100 µM. Item: `CC(C)CCCC(=O)O` 55.2

Requested field: inhibition at 100 µM. Item: `CC(=O)OCC(C)(C)Cc1ccccc1` 52.2

Requested field: inhibition at 100 µM. Item: CCOC(=O)CC1(C)OCCO1 [ethyl acetoacetate ethylene ketal] 53.2

Requested field: inhibition at 100 µM. Item: CCCCOC(=O)C(C)O (stereo not shown) [butyl lactate] 51.3

Requested field: inhibition at 100 µM. Item: `C1CNCCN1` 60

Requested field: inhibition at 100 µM. Item: `OCc1ccccc1` 50.5

Requested field: inhibition at 100 µM. Item: `CCC=C(C)C(=O)O` 52.4

Requested field: inhibition at 100 µM. Item: O=C(Oc1ccccc1)c1ccccc1O [phenyl salicylate] 72.7

Requested field: inhibition at 100 µM. Item: CCCCCCCCCCCCCCCCCC(=O)OCC(O)CO (racemic) 55.5

Values were extracted from patent US20130315843A1.
